- Test system: Escherichia coli TOP10;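 further: peptides expressed intracellularly from a pBAD plasmid library in pooled LB shake-flask culture, induced with 0.3% L-arabinose, DNA abundance read by NGS, three biological replicates, DESeq2 with apeglm shrinkage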
- Assay: shrunken log2 fold change of peptide-encoding DNA abundance (4.5 h post-induction vs induction); higher = less antimicrobial activity (less host growth inhibition)
- Condition notes: time post-induction: 4.5 h; library: site-saturation at positions 5, 18, 19, 20
Met means recorded shrunken log2 fold change is -0.06 or above; Not met means it is below -0.06.

These recorded examples may help you get a feel for the data.
Sequence data	Group
RRIRFRPPRLPRPRPRPMNFPRP	Not met
RRIRMRPPRLPRPRPRPIKEPRP	Met
RRIRTRPPRLPRPRPRPIEFPRP	Met
RRIRNRPPRLPRPRPRPSNAPRP	Not met
RRIRSRPPRLPRPRPRPKSYPRP	Not met

hey, is shrunken log2 fold change for this one >= -0.06? "RRIRGRPPRLPRPRPRPFNHPRP"
Not met

hey, is shrunken log2 fold change for this one >= -0.06? "RRIRHRPPRLPRPRPRPLVCPRP"
Met

hey, is shrunken log2 fold change for this one >= -0.06? "RRIRIRPPRLPRPRPRPEFDPRP"
Met

hey, is shrunken log2 fold change for this one >= -0.06? "RRIRMRPPRLPRPRPRPPDVPRP"
Met

hey, is shrunken log2 fold change for this one >= -0.06? "RRIRIRPPRLPRPRPRPYALPRP"
Not met

hey, is shrunken log2 fold change for this one >= -0.06? "RRIRSRPPRLPRPRPRPQYSPRP"
Not met

hey, is shrunken log2 fold change for this one >= -0.06? "RRIRYRPPRLPRPRPRPWLYPRP"
Not met
